# System: HSkMC
# methodNotes: cytotoxicity call (relative viability < 0.9)
# assayContext: 10 µM
The campaign covered roughly 39,000 compounds. About 1,500 (3.8%) were called active. The entries come from a sample that favours actives as a whole.
Hello, when you answer, please use one of the following outcomes: active, inactive

Here's what some known entries look like.
>>> assignedlabel("C[C@@H]1CCCCO[C@H](CN(C)C(=O)Nc2cccc3ccccc23)[C@@H](C)CN([C@@H](C)CO)C(=O)c2cc(NC(=O)c3ccncc3)ccc2O1")
"active"
>>> assignedlabel("C[C@@H]1CCCCO[C@@H](CN(C)Cc2ccc(C(F)(F)F)cc2)[C@@H](C)CN([C@@H](C)CO)C(=O)c2cc(NC(=O)Nc3ccc4c(c3)OCO4)ccc2O1")
"inactive"
>>> assignedlabel("CN1C[C@@H](O)COC[C@H]2O[C@H](CC(=O)N3CCN(c4ccccc4)CC3)CC[C@@H]21")
"inactive"

### Prompt Dear colleague, could you share the recorded outcome for `C[C@H](CO)N1C[C@H](C)[C@@H](CN(C)C(=O)Nc2cccc3ccccc23)OCCCC[C@H](C)Oc2ccc(NC(=O)c3ccncc3)cc2C1=O` when you have a moment?
### Response inactive

### Prompt Any idea what this test logged for `C[C@@H]1CN([C@@H](C)CO)C(=O)c2c(c3ccccc3n2C)-c2ccccc2CO[C@H]1CN(C)C(=O)[C@H](C)c1ccccc1` ?
### Response inactive

### Prompt Can you look up the reported call for `C[C@@H]1CCCCO[C@@H](CN(C)C(=O)Nc2cccc3ccccc23)[C@H](C)CN([C@@H](C)CO)C(=O)c2cc(NC(=O)c3ccncc3)ccc2O1` for me?
### Response inactive

### Prompt Call for entry `C[C@H]1CCCCO[C@H](CN(C)C(=O)Nc2cccc3ccccc23)[C@@H](C)CN([C@@H](C)CO)C(=O)c2cc(NC(=O)c3ccncc3)ccc2O1` :
### Response inactive

### Prompt For `COC(=O)c1c2oc(c1C(=O)OC)C(=O)N[C@@H](Cc1ccccc1)Cn1cc(nn1)[C@@H](Cc1ccccc1)NC(=O)N[C@H](CO)CC2` , which call appears in the assay record?
### Response inactive

### Prompt So what was the verdict on `C[C@@H]1CN([C@@H](C)CO)C(=O)c2cc(NC(=O)Nc3ccc(C(F)(F)F)cc3)ccc2O[C@@H](C)CCCCO[C@H]1CN(C)Cc1ccc2c(c1)OCO2` in this test?
### Response active

* * *

# Test system: HSkMC (human skeletal muscle cells)
# methodNotes: cytotoxicity call (relative viability < 0.9)
# assayContext: 10 µM
Out of some 39,000 compounds screened, about 1,500 (3.8%) were called active. The sample as a whole holds a higher share of actives than the screen did.
Hi there, use one of these labels in your reply, thanks! active, inactive

As a guide, the following entries are already answered.
>>> assignedlabel("C[C@H]1CN([C@@H](C)CO)C(=O)Cc2cc(NC(=O)c3ccncc3)ccc2O[C@H]1CN(C)Cc1ccc(-c2ccccc2)cc1")
"inactive"
>>> assignedlabel("C[C@H]1CN([C@@H](C)CO)C(=O)Cc2cc(NC(=O)Nc3ccc(F)cc3)ccc2O[C@@H]1CN(C)Cc1ccc(-c2ccccc2)cc1")
"inactive"
>>> assignedlabel("C[C@H]1CCCCO[C@H](CN(C)Cc2ccc(C(F)(F)F)cc2)[C@@H](C)CN([C@@H](C)CO)C(=O)c2cc(NS(=O)(=O)c3ccc(Cl)cc3)ccc2O1")
"active"

Please look at the following compound next.
### Prompt Please indicate how the test categorized `C[C@H](CO)N1C[C@H](C)[C@@H](CN(C)Cc2ccccc2)Oc2ccc(NC(=O)Nc3ccc(C(F)(F)F)cc3)cc2CC1=O` .
### Response active
